FYI, the data here is from paper PMC4400266.

Items are presented alongside their recorded Kb.
- assay.system: human OX2 receptors (Homo sapiens, UniProt O43614)
- Sequence (O43614 whole entry): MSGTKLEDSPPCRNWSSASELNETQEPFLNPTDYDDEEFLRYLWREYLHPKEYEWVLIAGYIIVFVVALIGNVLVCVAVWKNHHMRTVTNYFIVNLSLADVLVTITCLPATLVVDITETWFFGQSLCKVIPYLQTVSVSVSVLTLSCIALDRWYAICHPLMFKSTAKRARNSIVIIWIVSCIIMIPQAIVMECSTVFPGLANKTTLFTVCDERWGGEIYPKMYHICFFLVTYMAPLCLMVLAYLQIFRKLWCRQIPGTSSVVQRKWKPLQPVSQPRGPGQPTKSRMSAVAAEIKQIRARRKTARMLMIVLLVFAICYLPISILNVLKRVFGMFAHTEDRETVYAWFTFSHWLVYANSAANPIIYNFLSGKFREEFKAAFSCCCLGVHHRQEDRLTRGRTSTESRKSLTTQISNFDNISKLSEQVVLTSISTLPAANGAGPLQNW
- procedure.summary: Calcium mobilization Ke assay
- Type: cell-based

Before answering, review these 5 worked examples.
{"compound": "COc1cc2c(cc1OC)C(Cc1ccc(N(C)C)cc1)N(CC(=O)NCc1ccccc1)CC2 (centres unmarked) [Compound 48]", "assay.system": "human OX2 receptors (Homo sapiens, UniProt O43614)", "Kb": "> 10 µM"}
{"compound": "CCCNc1cc(CC2c3cc(OC)c(OC)cc3CCN2CC(=O)NCc2ccccc2)ccc1OC (centres unmarked) [Compound 31]", "assay.system": "human OX2 receptors (Homo sapiens, UniProt O43614)", "Kb": "> 10 µM"}
{"compound": "COc1cc2c(cc1OC)C(Cc1cccc(N(C)C)c1)N(CC(=O)NCc1ccccc1)CC2 (centres unmarked) [Compound 44]", "assay.system": "human OX2 receptors (Homo sapiens, UniProt O43614)", "Kb": "0.66 µM"}
{"compound": "COc1cc2c(cc1OC)C(Cc1ccc(OC)c(N(C)C)c1)N(CC(=O)NCc1ccccc1)CC2 (centres unmarked) [Compound 28]", "assay.system": "human OX2 receptors (Homo sapiens, UniProt O43614)", "Kb": "0.97 µM"}
{"compound": "CCCC(=O)Oc1ccc(CC2c3cc(OC)c(OC)cc3CCN2CC(=O)NCc2ccccc2)cc1OC (centres unmarked) [Compound 16]", "assay.system": "human OX2 receptors (Homo sapiens, UniProt O43614)", "Kb": "2.08 µM"}

Value of measured Kb for the entry COc1cc2c(cc1OC)C(Cc1cc(OC)c(OC)c(OC)c1)N(CC(=O)NCc1ccccc1)CC2 (centres unmarked) [Compound 52] : > 10 µM

Value of measured Kb for the entry COc1cc2c(cc1OC)C(C(C)c1ccccc1)N(CC(=O)NCc1ccccc1)CC2 (centres unmarked) [Compound 56] : > 10 µM

Value of measured Kb for the entry CCN(CC)c1cc(CC2c3cc(OC)c(OC)cc3CCN2CC(=O)NCc2ccccc2)ccc1OC (centres unmarked) [Compound 30] : > 10 µM

Value of measured Kb for the entry COc1cc2c(cc1OC)C(Cc1ccc(C)c(C)c1)N(CC(=O)NCc1ccccc1)CC2 (centres unmarked) [Compound 53] : > 10 µM

Value of measured Kb for the entry COc1cc2c(cc1OC)C(Cc1ccc(OC(C)C)cc1)N(CC(=O)NCc1ccccc1)CC2 (centres unmarked) [Compound 46] : > 10 µM

Value of measured Kb for the entry COc1ccc(CCC2c3cc(OC)c(OC)cc3CCN2CC(=O)NCc2ccccc2)cc1OC (centres unmarked) [Compound 60] : > 10 µM

Value of measured Kb for the entry COc1cc2c(cc1OC)C(Cc1cccc(OC(C)C)c1)N(CC(=O)NCc1ccccc1)CC2 (centres unmarked) [Compound 41] : > 10 µM

Value of measured Kb for the entry CCCCOc1ccc(CC2c3cc(OC)c(OC)cc3CCN2CC(=O)NCc2ccccc2)cc1OC (centres unmarked) [Compound 13] : 2 µM

Value of measured Kb for the entry COc1cc(CC2c3cc(OC)c(OC)cc3CCN2CC(=O)NCc2ccccc2)ccc1O (centres unmarked) [Compound 12] : > 10 µM

====

Items are presented alongside their recorded OX2/OX1.
- assay.system: human OX1 receptors (Homo sapiens)
- Sequence (O43613 1-425): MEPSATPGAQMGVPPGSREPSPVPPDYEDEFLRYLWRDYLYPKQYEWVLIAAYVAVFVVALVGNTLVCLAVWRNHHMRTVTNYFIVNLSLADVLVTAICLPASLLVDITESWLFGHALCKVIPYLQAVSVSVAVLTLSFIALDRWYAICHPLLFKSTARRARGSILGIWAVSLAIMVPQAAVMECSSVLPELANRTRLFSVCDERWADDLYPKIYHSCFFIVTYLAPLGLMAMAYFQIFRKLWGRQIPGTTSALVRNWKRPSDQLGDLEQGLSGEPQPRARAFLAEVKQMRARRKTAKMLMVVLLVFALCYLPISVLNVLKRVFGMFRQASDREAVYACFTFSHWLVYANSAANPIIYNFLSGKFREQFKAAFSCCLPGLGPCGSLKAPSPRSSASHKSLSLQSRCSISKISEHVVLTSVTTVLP
- procedure.summary: Calcium mobilization Ke assay
- Assay type: cell-based
- reported.conditions: ratio of Ke OX2 to Ke OX1 (table column)

Before answering, review these 3 worked examples.
{"compound": "COc1cc2c(cc1OC)C(Cc1cccc(N(C)C)c1)N(CC(=O)NCc1ccccc1)CC2 (stereo not drawn) [Compound 44]", "OX2/OX1": 8.8}
{"compound": "CCCNc1cc(CC2c3cc(OC)c(OC)cc3CCN2CC(=O)NCc2ccccc2)ccc1OC (stereo not drawn) [Compound 31]", "OX2/OX1": ">11"}
{"compound": "CCCCCCOc1ccc(CC2c3cc(OC)c(OC)cc3CCN2CC(=O)NCc2ccccc2)cc1OC (stereo not drawn) [Compound 14]", "OX2/OX1": ">83"}

Value of measured OX2/OX1 for the entry COc1cc(CC2c3cc(OC)c(OC)cc3CCN2CC(=O)NCc2ccccc2)ccc1O (stereo not drawn) [Compound 12] : >24

Value of measured OX2/OX1 for the entry CCCCOc1ccc(CC2c3cc(OC)c(OC)cc3CCN2CC(=O)NCc2ccccc2)cc1OC (stereo not drawn) [Compound 13] : 42

Value of measured OX2/OX1 for the entry COc1cc2c(cc1OC)C(Cc1ccc(N(C)C)cc1)N(CC(=O)NCc1ccccc1)CC2 (stereo not drawn) [Compound 48] : >40

Value of measured OX2/OX1 for the entry COc1cc2c(cc1OC)C(Cc1ccc3ncccc3c1)N(CC(=O)NCc1ccccc1)CC2 (stereo not drawn) [Compound 55] : >23

Value of measured OX2/OX1 for the entry COc1cc2c(cc1OC)C(Cc1ccc3ccccc3c1)N(CC(=O)NCc1ccccc1)CC2 (stereo not drawn) [Compound 54] : 6.6

Value of measured OX2/OX1 for the entry CCN(CC)c1cc(CC2c3cc(OC)c(OC)cc3CCN2CC(=O)NCc2ccccc2)ccc1OC (stereo not drawn) [Compound 30] : >48
